Parameter normalized growth: see the listing below.
Test: chemical genetic growth profiling, strain panel (AID 1159580);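 note: tested at 20 µM; growth read once vehicle control cultures reached saturation at 30 °C; 1 = growth at the plate median or of vehicle wells; lower values mean less growth of the strain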
Details: S. cerevisiae deletion strains, growth OD, locus YAL030W, strain snc1, active compounds read low
About 2,000 (36%) of roughly 5,500 compounds were called active. Another 18% or so got no clear call; they are omitted. The list shows a part of the results.
Please respond with just the number, no unit label.

Before answering, review these 5 worked examples.
COC(=O)NC(=S)Nc1ccccc1NC(=S)NC(=O)OC: 0.986
C[N+]1(C)C[C@H](O)[C@H](C(=O)[O-])C1: 1.01
CCC(=O)OCC(=O)[C@@]1(OC(=O)CC)[C@@H](C)CC2C3CCC4=CC(=O)C=C[C@]4(C)C3(F)[C@@H](O)C[C@@]21C (some centres not stated): 1
O=c1c2cc(O)c(O)cc2oc2cc(O)c(C3O[C@H](CO)[C@H](O)[C@@H](O)[C@H]3O)c(O)c12 (some centres not stated): 1.02
CC(C)(C)NCC(O)COc1cccc2c1C[C@H](O)[C@H](O)C2 (some centres not stated): 0.995

Asked: Report normalized growth for CC1CCCC(C)N1NC(=O)c1ccc(Cl)c(S(N)(=O)=O)c1 (configuration not stated) please.
Given back: 0.989

Asked: Also check CC1Cc2ccccc2N1NC(=O)c1ccc(Cl)c(S(N)(=O)=O)c1 (configuration not stated)
Given back: 0.998

Asked: Also check `Cc1c(C(N)=O)cc([N+](=O)[O-])cc1[N+](=O)[O-]`
Given back: 1.01

Asked: Also check COP(N)(=O)SC (configuration not stated)
Given back: 1

Asked: Also check CCCCC(=O)O[C@]1(C(=O)CO)[C@@H](C)CC2C3CCC4=CC(=O)C=C[C@]4(C)[C@@]3(F)C(O)C[C@@]21C (some centres not stated)
Given back: 0.981

Asked: Also check CC1(C)C(=O)CC[C@@]2(C)C1C[C@@H](O)[C@@]1(C)C3=CC(=O)O[C@@H](c4ccoc4)[C@]3(C)CCC21 (some centres not stated)
Given back: 1.02

----------
Experiment: chemical genetic growth profiling, strain panel (AID 1159580)
Settings: S. cerevisiae deletion strains, growth OD, locus YFR010W, strain ubp6, active compounds read low
In all, about 5,500 compounds went through this assay and about 2,000 (36%) were called active. Inconclusive results (about 18%) are left out. Some of the results follow.
normalized growth vs 1: less than gives 1.0; not less than gives 0.0.

Cc1ccccc1N1C(=O)c2cc(S(N)(=O)=O)c(Cl)cc2NC1C (stereo not drawn): 1.0

Consider the additional molecule presented here.
Asked: State whether 1 exceeds normalized growth recorded for COC1CC(OC2CCC3(C)C(CCC4C3CCC3(C)C(C5=CC(=O)OC5)C(OC(C)=O)CC43O)C2)OC(C)C1O (stereo not drawn) .
Given back: 0.0

----------
Experiment: chemical genetic growth profiling, strain panel (AID 1159580);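 note: tested at 20 µM; growth read once vehicle control cultures reached saturation at 30 °C; 1 = growth at the plate median or of vehicle wells; lower values mean less growth of the strain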
Details: S. cerevisiae deletion strains, growth OD, locus YMR205C, strain PFK2 (second series), active compounds read low
The whole screen tested about 5,500 compounds, of which about 2,000 (36%) were called active. Another 18% or so got no clear call; they are omitted. The list shows a part of the results.
MEASURE: normalized growth
Please respond with just the number, no unit label.

N/C(=N/OC(=O)c1cnn(-c2ccc([N+](=O)[O-])cc2)c1C(F)(F)F)c1ccc(Cl)cc1: 0.886
CO/N=C1/CC(C)(C)Cc2c(-c3ccn(C(=O)Nc4cccc(Cl)c4)n3)sc(SC)c21: 0.978
O=S(=O)(Nc1ccccc1Sc1c(Cl)cncc1Cl)c1ccc(Cl)cc1: 0.998
O=C(OCc1ccccc1Br)c1cc([N+](=O)[O-])cc([N+](=O)[O-])c1: 0.842
N/C(=N/OC(=O)c1ccc([N+](=O)[O-])cc1)c1c(Cl)cccc1Cl: 0.905

Attention now shifts to the item below.
Asked: Report normalized growth for `CC(C)/C(=N/OC(=O)c1ccc([N+](=O)[O-])cc1)c1ccccc1` please.
Given back: 0.126

----------
Assay: chemical genetic growth profiling, strain panel (AID 1159580);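 note: tested at 20 µM; growth read once vehicle control cultures reached saturation at 30 °C; 1 = growth at the plate median or of vehicle wells; lower values mean less growth of the strain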
Settings: S. cerevisiae deletion strains, growth OD, locus YCL069W, strain vba3, active compounds read low
Screen size: about 5,500 compounds; about 2,000 (36%) were called active. About 18% were inconclusive and are not listed. The list shows a part of the results.
MEASURE: normalized growth
Please respond with just the number, no unit label.

COc1ccccc1N1CCN(CCCNc2cc(=O)n(C)c(=O)n2C)CC1: 1.02
COP(N)(=O)SC (stereo not given): 1
C[C@@H]1O[C@@H](O[C@H]2CC[C@]3(C=O)C4CC[C@]5(C)[C@@H](C6=CC(=O)OC6)CC[C@]5(O)C4CC[C@]3(O)C2)[C@H](O)[C@H](O)[C@H]1O (stereo not given in full): 1.01
C[C@@H](CO)NC(=O)C1C=C2c3cccc4[nH]cc(c34)C[C@H]2N(C)C1 (stereo not given in full): 1.01
C[C@H]1O[C@@H](O[C@H]2[C@@H](O)C[C@H](O[C@H]3[C@@H](O)C[C@H](O[C@H]4CC[C@]5(C)C6CC[C@]7(C)[C@@H](C8=CC(=O)OC8)CC[C@]7(O)C6CC[C@@H]5C4)O[C@@H]3C)O[C@@H]2C)C[C@H](O)[C@@H]1O (stereo not given in full): 0.969
O=C(Oc1cccc2cccnc12)c1ccccc1: 0.948

Asked: Report normalized growth for `CC(C)c1cccc(O)c(=O)c1` please.
Given back: 0.0926

Asked: Also check COC1CC(OC2CCC3(C)C(CCC4C3CCC3(C)C(C5=CC(=O)OC5)C(OC(C)=O)CC43O)C2)OC(C)C1O (stereo not given)
Given back: 1.02

Asked: Also check CC1(C)S[C@@H]2C(N3C(=O)[C@@H](c4ccccc4)NC3(C)C)C(=O)N2[C@H]1C(=O)O (stereo not given in full)
Given back: 1.02

Asked: Also check `CC(C)c1cccc(C(C)C)c1O`
Given back: 0.992

----------
Experiment: chemical genetic growth profiling, strain panel (AID 1159580);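 note: tested at 20 µM; growth read once vehicle control cultures reached saturation at 30 °C; 1 = growth at the plate median or of vehicle wells; lower values mean less growth of the strain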
Conditions: S. cerevisiae deletion strains, growth OD, locus YLR113W, strain HOG1
Out of some 5,500 compounds screened, about 2,000 (36%) were called active. Inconclusive results (about 18%) are left out. Rule as the data show it: active = normalized growth mostly below about 0.91 (no sharp cut-off); inconclusive = no clear call, values can overlap the other calls; inactive = mostly above about 0.92. The list shows a part of the results.
Use one of these outcomes when replying: active, inactive

CCCc1nc(C)c2c(=O)[nH]c(-c3cc(S(=O)(=O)N4CCN(CC)CC4)ccc3OCC)nn12: inactive
OC1(c2ccc(Cl)c(C(F)(F)F)c2)CCN(CCCC(c2ccc(F)cc2)c2ccc(F)cc2)CC1: inactive
CC(C)/C(=N/OC(=O)c1ccc([N+](=O)[O-])cc1)c1ccccc1: active
O=C(CCCN1CCN(c2ccccn2)CC1)c1ccc(F)cc1: inactive
CN(C)/C=C1\CSc2ccc(Cl)cc2C1=O: active

Asked: # lookup: test call for `O=C(Nc1ccc(SC(F)(F)F)cc1)Nc1ccc(Oc2cccc(C(F)(F)F)c2)nc1`
Given back: inactive

Asked: Also check `O=C1Nc2ccccc2/C1=C\c1cccc2ccccc12`
Given back: active

Asked: Also check COC1CC(O[C@H]2CC[C@]3(C=O)C4CC[C@]5(C)C(C6=CC(=O)OC6)CC[C@]5(O)C4CC[C@]3(O)C2)OC(C)C1O (some centres not stated)
Given back: inactive

Asked: Also check `CC(C)(N)Cc1ccccc1`
Given back: inactive

Asked: Also check `NC(=O)C1(N2CCCCC2)CCN(CCCC(=O)c2ccc(F)cc2)CC1`
Given back: inactive

Asked: Also check `O=c1cc(CSc2ccc(Cl)cc2)c2ccc(O)cc2o1`
Given back: active

Asked: Also check `O=C[C@H](O)[C@@H](O)[C@H](O)CO`
Given back: inactive

Asked: Also check `Cc1cc(Br)c(O)c(/C=N\NC(=S)NC(C)(C)C)c1`
Given back: active

Asked: Also check CC1(C)O[C@@H]2CC3C4C[C@H](F)C5=CC(=O)CC[C@]5(C)C4[C@@H](O)C[C@]3(C)[C@]2(C(=O)CO)O1 (some centres not stated)
Given back: inactive

Asked: Also check `O=C1CC2(CCCC2)CC(=O)N1CCCCN1CCN(c2ncccn2)CC1`
Given back: inactive

Asked: Also check `COc1cc(C(=O)N2CCOCC2)cc(OC)c1OC`
Given back: inactive

Asked: Also check `O=C1Nc2ccccc2/C1=C\c1c[nH]c2ccccc12`
Given back: active

Asked: Also check `O=C(CCCN1CCC(O)(c2ccc(Br)cc2)CC1)c1ccc(F)cc1`
Given back: inactive

Asked: Also check `CCCc1nn(C)c2c(=O)[nH]c(-c3cc(S(=O)(=O)N4CCN(C)CC4)ccc3OCC)nc12`
Given back: inactive

Asked: Also check C[C@@H](CO)NC(=O)C1C=C2c3cccc4[nH]cc(c34)C[C@H]2N(C)C1 (some centres not stated)
Given back: inactive

Asked: Also check `O=C1/C(=C/c2c[nH]c3ccccc23)CSc2ccccc21`
Given back: inactive

Asked: Also check `CC1(C)C=Cc2cc(/C(N)=N\OC(=O)Nc3cccc(C(F)(F)F)c3)ccc2O1`
Given back: active
